B1: MYBL2 (parent)
chain: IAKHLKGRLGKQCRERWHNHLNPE

variants of: B1; assay: protein stability index of a GFP-peptide fusion (GPS, HEK-293T) (PSI 1-6); higher = more stable; conditions: c terminus: a fixed tail appended;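 further: lentivirally expressed fusions sorted by FACS into six bins by GFP to DsRed ratio, PSI derived from sequencing read proportions per bin multiplied by bin number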
Tick T if protein stability index is 2 or greater. Tick F if protein stability index is less than 2.

Sample answers from the record:
Task: Kindly determine if protein stability index recorded for L21V is above or exactly 2.
Result: T

Task: Kindly determine if protein stability index recorded for Q12D is above or exactly 2.
Result: F

Task: Reported protein stability index at or above 2? N19A
Result: F

Task: Form field: protein stability index at least 2? Entry: H4N
Result: F

Task: Entry L9V : is its protein stability index no less than 2?
Result: T

Task: Could you please find out whether L9W has protein stability index that meets 2 or exceeds it?
Result: F

Task: protein stability index >= 2 for L5Q ?
Result: F

Task: Determine whether this variant has protein stability index no lower than 2: I1L
Result: F

***
Task: Reported protein stability index at or above 2? E24M
Result: T

Task: Hi team, for Q12G , is the recorded protein stability index at or above 2?
Result: T

Task: Confirm if protein stability index reported for the variant H18E is 2 or above.
Result: F

Task: Test whether the variant I1F records protein stability index of 2 or higher.
Result: T

Task: Item W17L with protein stability index of 2 or above?
Result: T

Task: Hi, just wondering whether E24K shows protein stability index of 2 or higher.
Result: T

Task: Can L5K be said to have protein stability index at or above 2?
Result: T

Task: Evaluate K3V : protein stability index at minimum 2?
Result: T

Task: Please check the record L5H and state if its protein stability index is at or above 2.
Result: T

Task: Textbook exercise: given the entry C13P , state whether its protein stability index is greater than or equal to 2.
Result: T

Task: Assess whether reported protein stability index for L5N sits at 2 or higher.
Result: T

Task: Assess whether reported protein stability index for R14E sits at 2 or higher.
Result: T

Task: // inclusive: protein stability index at least 2? input: W17I
Result: T
